test: protein stability index of a GFP-peptide fusion (yeast GPS) (PSI 1-4); higher = more stable; sorted into four equal gates, so the index is relative within each strain; details: doa10∆
Binary call on protein stability index: 1 from 3 upward, 0 beneath that.

Here's what some known entries look like.
monomer_sequence	qualitative_label
ITKDHKVLARQQLQVLA [FAS2]	0
SVYYHKGNFRTKPFENV [SNU114]	1
LADKLENYEGKQDKTLQ [YIL149C/MLP2]	1
RDYQRINKNSKIALREY [POP4]	0
FSKAIEWDMLNVEEEQI [BRR2]	0
DSLKLNSKPVELKPVSL [YJL041W/NSP1]	0

Req: Given the entry QTKDSVKEIVLPLFYDL [IRR1] , answer whether its protein stability index meets or surpasses 3.
Resp: 0

Req: Exam item: decide whether the reported protein stability index for DTRITPSKVSKIDSHVV [PRE6] is at least 3.
Resp: 0

Req: Does the sequence SEAFPSLQSCSVAVHFQ [SMC4] have recorded protein stability index that is 3 or more?
Resp: 0

Req: Check this sequence for protein stability index at or above 3: EILTNQQRGITYLNEVL [YGR119C/NUP57]
Resp: 0

Req: Is protein stability index at least 3? Consider GNPTNISSPIVANSPNK [YDL088C/ASM4]
Resp: 0
